Biological target: progesterone receptor (Homo sapiens)
Construct: made in house; host or cells: Hi5 insect cells (cytosol)
Sequence (P06401 whole entry, species assumed): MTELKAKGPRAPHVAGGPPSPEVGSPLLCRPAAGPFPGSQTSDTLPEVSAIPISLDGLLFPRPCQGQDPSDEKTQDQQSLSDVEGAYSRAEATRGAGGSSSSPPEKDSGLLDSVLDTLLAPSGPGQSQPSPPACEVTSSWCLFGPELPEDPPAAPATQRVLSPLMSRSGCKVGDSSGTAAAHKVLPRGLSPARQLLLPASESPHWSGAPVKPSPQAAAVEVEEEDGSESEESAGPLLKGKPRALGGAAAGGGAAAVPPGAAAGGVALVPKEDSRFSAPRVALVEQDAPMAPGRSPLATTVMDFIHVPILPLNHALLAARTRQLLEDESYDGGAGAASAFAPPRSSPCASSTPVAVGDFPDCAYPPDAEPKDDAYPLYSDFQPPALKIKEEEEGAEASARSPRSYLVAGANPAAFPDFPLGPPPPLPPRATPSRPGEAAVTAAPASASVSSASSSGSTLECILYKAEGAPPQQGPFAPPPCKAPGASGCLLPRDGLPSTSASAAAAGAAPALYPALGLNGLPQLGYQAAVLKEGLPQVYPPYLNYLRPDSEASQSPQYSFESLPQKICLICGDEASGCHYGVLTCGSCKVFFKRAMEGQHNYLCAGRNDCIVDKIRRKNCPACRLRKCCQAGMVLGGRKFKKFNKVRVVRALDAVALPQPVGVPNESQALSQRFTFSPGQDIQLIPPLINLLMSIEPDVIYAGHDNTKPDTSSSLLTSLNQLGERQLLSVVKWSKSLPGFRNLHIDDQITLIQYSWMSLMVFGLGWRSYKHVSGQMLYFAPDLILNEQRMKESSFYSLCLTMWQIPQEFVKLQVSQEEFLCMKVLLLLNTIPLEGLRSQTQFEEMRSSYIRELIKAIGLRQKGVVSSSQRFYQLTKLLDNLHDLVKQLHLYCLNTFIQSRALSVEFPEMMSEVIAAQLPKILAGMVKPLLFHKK
Test: Progesterone receptor binding test
Details: ratio of competition factors CF(PR) and CF(MR)
Reported CF PR/CF MR is given for each of the following compounds.
measured_quantity: CF PR/CF MR

| compound | observed_value |
| --- | --- |
| CC[C@]12CC[C@H]3[C@@H]([C@H]4C[C@H]4C4=C(Cl)C(=O)CC[C@@H]43)[C@@H]1[C@@H]1C[C@@H]1[C@@]21C=CC(=O)O1 | 1.07 |
| C=C[C@@H]1CC2=CC(=O)CC[C@@H]2[C@H]2CC[C@@]3(C)[C@@H]([C@H]4C[C@H]4[C@@]34C=CC(=O)O4)[C@@H]21 [Example 16A] | 1.88 |
| C[C@]12CC[C@H]3[C@@H](CC4(CC4)C4=CC(=O)CC[C@@H]43)[C@@H]1[C@@H]1C[C@@H]1[C@@]21C=CC(=O)O1 | 1.30 |
| CC[C@]12CC[C@H]3[C@@H]([C@H]4C[C@H]4C4=CC(=O)CC[C@@H]43)[C@@H]1[C@@H]1C[C@@H]1[C@@]21C=CC(=O)O1 | 0.48 |
| C[C@]12CC[C@H]3[C@@H](C=CC4=CC(=O)CC[C@@H]43)[C@@H]1[C@H]1C[C@H]1[C@@]21C=CC(=O)O1 | 4.93 |

====

Biological target: androgen receptor (Homo sapiens, UniProt P10275)
Sequence (P10275 whole entry, species assumed): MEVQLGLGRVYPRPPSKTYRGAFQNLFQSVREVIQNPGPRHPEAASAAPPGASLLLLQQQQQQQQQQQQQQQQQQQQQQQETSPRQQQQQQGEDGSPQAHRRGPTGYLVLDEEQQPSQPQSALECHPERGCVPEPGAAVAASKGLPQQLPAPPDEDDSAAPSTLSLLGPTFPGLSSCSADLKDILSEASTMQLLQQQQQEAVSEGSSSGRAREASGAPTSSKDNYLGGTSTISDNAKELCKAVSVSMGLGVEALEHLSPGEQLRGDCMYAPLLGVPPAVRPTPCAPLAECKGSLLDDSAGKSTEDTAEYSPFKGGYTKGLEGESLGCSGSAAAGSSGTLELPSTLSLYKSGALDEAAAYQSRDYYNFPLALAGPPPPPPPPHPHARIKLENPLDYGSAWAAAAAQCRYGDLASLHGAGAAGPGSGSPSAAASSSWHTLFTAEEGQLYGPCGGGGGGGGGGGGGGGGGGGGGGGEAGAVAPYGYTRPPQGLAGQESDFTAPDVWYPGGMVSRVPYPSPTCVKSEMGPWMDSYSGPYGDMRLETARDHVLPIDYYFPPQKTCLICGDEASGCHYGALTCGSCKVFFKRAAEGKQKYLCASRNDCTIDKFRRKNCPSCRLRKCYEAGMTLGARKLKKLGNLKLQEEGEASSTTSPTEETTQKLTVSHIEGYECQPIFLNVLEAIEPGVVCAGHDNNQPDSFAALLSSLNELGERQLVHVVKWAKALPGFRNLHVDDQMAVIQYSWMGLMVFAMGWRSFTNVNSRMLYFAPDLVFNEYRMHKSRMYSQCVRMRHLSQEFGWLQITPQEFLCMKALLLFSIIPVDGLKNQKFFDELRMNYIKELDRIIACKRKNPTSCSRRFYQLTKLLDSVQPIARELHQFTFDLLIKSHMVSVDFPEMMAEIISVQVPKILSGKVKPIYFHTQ
Assay: Androgenic/antiandrogenic action by transactivation test (PC3 reporter cells)
Assay type: cell-based
Design: expressed in transfected cells; host or cells: PC3 cells
Conditions: PC-3, read-out: Androgen receptor Agonism efficacy
Each entry gets rule not met if its Emax stays under 60%, and rule met if its Emax is 60% or above.

| compound | target_or_test_system | cat |
| --- | --- | --- |
| CC[C@@H]1CC2=CC(=O)CC[C@@H]2[C@H]2CC[C@@]3(C)[C@@H]([C@H]4C[C@H]4[C@@]34C=CC(=O)O4)[C@H]12 [Example 15A] | androgen receptor (Homo sapiens, UniProt P10275) | rule not met |
| C[C@]12CC[C@H]3[C@@H](CCC4=C(Cl)C(=O)CC[C@@H]43)[C@@H]1[C@@H]1C[C@@H]1[C@@]21C=CC(=O)O1 | androgen receptor (Homo sapiens, UniProt P10275) | rule met |
| C[C@]12CC[C@H]3[C@@H](C=CC4=CC(=O)CC[C@@H]43)[C@@H]1[C@H]1C[C@H]1[C@@]21C=CC(=O)O1 | androgen receptor (Homo sapiens, UniProt P10275) | rule not met |
| C[C@]12CC[C@H]3[C@@H](CCC4=CC(=O)CC[C@@H]43)[C@@H]1[C@H]1C[C@H]1[C@@]21C=CC(=O)O1 | androgen receptor (Homo sapiens, UniProt P10275) | rule not met |
| C=C[C@@H]1CC2=CC(=O)CC[C@@H]2[C@H]2CC[C@@]3(CC)[C@@H]([C@@H]4C[C@@H]4[C@@]34C=CC(=O)O4)[C@@H]21 | androgen receptor (Homo sapiens, UniProt P10275) | rule met |
| CC[C@]12CC[C@H]3[C@@H](C=CC4=CC(=O)CC[C@@H]43)[C@@H]1[C@@H]1C[C@@H]1[C@@]21C=CC(=O)O1 | androgen receptor (Homo sapiens, UniProt P10275) | rule not met |
| C[C@]12CC[C@H]3[C@@H](CC4(CC4)C4=CC(=O)CC[C@@H]43)[C@@H]1[C@@H]1C[C@@H]1[C@@]21C=CC(=O)O1 | androgen receptor (Homo sapiens, UniProt P10275) | rule met |
| CC[C@]12CC[C@H]3[C@@H](CCC4=CC(=O)CC[C@@H]43)[C@@H]1[C@@H]1C[C@@H]1[C@@]21C=CC(=O)O1 | androgen receptor (Homo sapiens, UniProt P10275) | rule met |
| C=C[C@@H]1CC2=CC(=O)CC[C@@H]2[C@H]2CC[C@@]3(C)[C@@H]([C@H]4C[C@H]4[C@@]34C=CC(=O)O4)[C@@H]21 [Example 16A] | androgen receptor (Homo sapiens, UniProt P10275) | rule met |
